assay: inhibitors of TNFa-induced NFkB p65 translocation, primary screen, imaging, HUVEC, MLSMR starter and 10KST1 sets (AID 438); details: HUVEC TNFa-induced p65 nuclear translocation; measured here: nuclei count (cytotoxicity indicator), at 2.08 µM;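 note: compound added about 3h40 before a 20 min TNFalpha stimulation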
Entries and their cell count values follow.
Write the value as a bare number.

The cases that follow already have their cell count on record.
>>> df
                                   compound  recorded_measurement
0   O=C(Nc1ccon1)c1cccc(S(=O)(=O)N2CCCC2)c1                   307
1  O=S(=O)(c1ccc2c(c1)OCCO2)N1CCC(n2nnc3cc(F)ccc32)CC1                   577
2                O=C(Nc1ccc(Cl)cc1)N1CCSCC1                   358
3  COC(=O)c1[nH]c2cc(OC)ccc2c1NC(=O)CN1CCOCC1                   346
4   COc1ccc(OCCOC(=O)c2cccc(-n3cnnn3)c2)cc1                   289
5  O=C(CCC(=O)OCCCC(F)(F)C(F)(F)F)NC1CCCCC1                   424
6                Cc1nnc(Nc2ccccn2)c2ccccc12                   657
7  CC(=O)c1c(C)[nH]c(C(=O)Nc2ccc3c(c2)OCCO3)c1C                   402
8  COCCCN1C(=O)C(O)=C(C(C)=O)C1c1ccccn1 (stereo unspecified)                   686
9  COc1ccc(N2CCN(c3ncnc4c3cnn4-c3ccc(C)cc3C)CC2)cc1                   683

Given Fc1ccc(-c2nnc3ccc(N4CCCC4)nn23)cc1 , respond with its cell count.
662

Given Cc1cc(C)nc(N2CCC(C(=O)Nc3ccc4c(c3)CCC4)CC2)n1 , respond with its cell count.
338

Given Cc1c[nH]c2cccc(OCC(O)CNC(C)(C)C)c12 (stereo unspecified) , respond with its cell count.
324

###

assay: TLR3 IRF3 reporter activation blockers – cell-based, poly I:C stimulus, luciferase, 10K MLSCN set, primary screen (AID 602277); settings: HEK293-TLR3 RL24 IRF3 luciferase reporter, at 10 µM, stronger effect = higher value
Lab note: anything with inhibition at or over 20% counts as YES; the rest go in NO.

>>> print(df.to_string())
                                   molecule  cat
0  CC(=O)Nc1ccc(S(=O)(=O)N2CCN(c3cc(C)nc4ccccc34)CC2)cc1   NO
1  COc1ccc2c(c1)CCc1cc(C(=O)N3CCN(c4ccc(N5CCOCC5)nn4)CC3)sc1-2   NO

Tell me whether inhibition is at least 20% here: COCC(=O)N(Cc1ccccc1)c1ccccn1
NO

Tell me whether inhibition is at least 20% here: COc1ccc(C2C(C(C)=O)=C(O)C(=O)N2C)c(OC)c1 (stereo unspecified)
YES

Tell me whether inhibition is at least 20% here: COc1ccc(-c2cn3c(C)c(C(=O)Nc4cc(NC(C)=O)ccc4OC)sc3n2)cc1
YES

###

assay: endothelial E-selectin expression blockers – imaging, HUVEC, immunofluorescence, MLSMR starter and 10KST1 sets, primary screen (AID 487); conditions: HUVEC TNFalpha-induced E-selectin immunofluorescence imaging, at 2 µM; stronger effect = higher value;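 note: signal is fraction of cell area covered by stained E-selectin grains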
Entries and their inhibition values follow.
Hi! Could you send only the number? It should be in %, unit omitted.

Given O=C(CCNS(=O)(=O)c1ccc(Br)s1)N1CCCCC1 , respond with its inhibition.
-86.3

Given CCOc1ccccc1-n1nnnc1SCC(=O)Nc1cc2oc3ccccc3c2cc1OC , respond with its inhibition.
-108

Given COc1cccc(N2C(=O)N(c3ccccc3Cl)C3CS(=O)(=O)CC32)c1 (stereo unspecified) , respond with its inhibition.
-47.6

Given Cc1cc(OCC(O)CN2CCN(CCO)CC2)ccc1C(C)C (stereo unspecified) , respond with its inhibition.
24

Given O=C(NCc1ccccc1)C1CCCN(S(=O)(=O)c2cccnc2)C1 (stereo unspecified) , respond with its inhibition.
-59.6

Given Cc1ccc(S(=O)(=O)N2CCN(C(=O)N3CCOCC3)C2c2ccc(N(C)C)cc2)cc1 (stereo unspecified) , respond with its inhibition.
-44.5

Given CN(c1ccccc1C(=O)NCC1CCCO1)S(C)(=O)=O (stereo unspecified) , respond with its inhibition.
-12.5

Given CC(C)C(=O)Nc1ccc(-c2nc3cccnc3o2)cc1 , respond with its inhibition.
23.3

Given CN1C(=O)c2oc3ccccc3c(=O)c2C1c1ccccn1 (stereo unspecified) , respond with its inhibition.
-28.5

Given Cc1cccc(-n2ncc3c(NCc4cccs4)ncnc32)c1 , respond with its inhibition.
-119

Given CCCN1CCN(C(=O)Cn2cccc2C(=O)c2ccccc2)CC1 , respond with its inhibition.
-0.1

Given CC1CN(C(=O)CSc2ncnc3sccc23)CC(C)O1 (stereo unspecified) , respond with its inhibition.
-1.1

Given CCCn1cnc2c(c1=O)c1nc3ccccc3nc1n2Cc1ccccc1OC , respond with its inhibition.
-68.4

Given Cc1ccnc(NS(=O)(=O)c2ccc(NC(=O)Cc3cccs3)cc2)n1 , respond with its inhibition.
-83.5

Given CCc1n[nH]c2c1C(=O)CC(C)(C)C2 , respond with its inhibition.
19.5

###

experiment: blockers of RIG-like receptor reporter activation – cell-based, Sendai virus stimulus, luciferase, 10K MLSCN set, TLR/RLR signaling modifier project, primary screen (AID 602276); settings: HEK293 RL24 IRF3 luciferase reporter, at 10 µM, stronger effect = higher value;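 note: firefly luciferase from ISG56 promoter only with Renilla not read in this screen; 0% = Sendai virus plus DMSO and 100% = medium plus DMSO without virus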
The source made the active and inactive calls.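 Rule for the calls: active = inhibition at or above 50% at 10 µM; inactive = inhibition below 50%.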
measure-name: inhibition

>>> print(df.to_string())
                                   compound  recorded_measurement
0  Cc1ccc(C2CC(c3ccc(C)cc3)n3nc(N)nc3N2)cc1 (stereo unspecified)     -11.6% (inactive)
1  O=S1(=O)C=C(Sc2nnc(-c3ccccc3)o2)c2ccccc21      12.3% (inactive)
2        COc1cccc(OCCSc2nnc3sc4ccccc4n23)c1     -10.1% (inactive)
3  Cc1cc(NC(=O)Cn2cnc3c(cnn3C(C)(C)C)c2=O)no1     -18.6% (inactive)
4  Cc1nc(NC2=NCN(CCc3ccccc3)CN2)nc2c(C)cccc12      27.7% (inactive)

Okay, next one:
Given O=C(Nc1ccc2c(c1)OCO2)C(c1ccccc1)N1CCC2(CC1)OCCO2 (stereo unspecified) , respond with its inhibition.
-14.7% (inactive)

###

experiment: blockers of RIG-like receptor reporter activation – cell-based, Sendai virus stimulus, luciferase, 10K MLSCN set, TLR/RLR signaling modifier project, primary screen (AID 602276); details: HEK293 RL24 IRF3 luciferase reporter, at 10 µM, stronger effect = higher value;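 note: firefly luciferase from ISG56 promoter only with Renilla not read in this screen; 0% = Sendai virus plus DMSO and 100% = medium plus DMSO without virus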
The source made the active and inactive calls.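 Rule for the calls: active = inhibition at or above 50% at 10 µM; inactive = inhibition below 50%.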
measure-name: inhibition

The cases that follow already have their inhibition on record.
>>> df
                                   molecule  measure_name  recorded_measurement
0  CCOC(=O)C1C(=O)OC(C)(C)C1C(C)C(=O)c1ccc(OC)cc1 (stereo unspecified)    inhibition      21.2% (inactive)
1  COC(=O)c1cc2ccsc2n1CC(=O)Nc1cc(C)cc(C)c1    inhibition       -21% (inactive)
2  Cc1ccc2c(c1)NC(=O)C(CC(=O)NCCCN1CCN(c3cc(Cl)ccc3C)CC1)O2 (stereo unspecified)    inhibition     -15.5% (inactive)
3           O=C(Nc1ccc2c(c1)OCCO2)NC1CCCCC1    inhibition     -28.7% (inactive)
4        Cc1cc(C)c(OCC(=O)Nc2cccc(O)c2)cc1C    inhibition      16.6% (inactive)
5  CCOC(=O)c1c(NC(=O)CSc2nc3c(c(=O)n(C)c(=O)n3C)n2C(C)C)sc(C)c1C    inhibition        18% (inactive)

Given COc1ccc(CCNC(=O)C2CCCN(c3nn4c(=O)cc(C)nc4s3)C2)cc1OC (stereo unspecified) , respond with its inhibition.
19.7% (inactive)

Given Cc1cc(C)cc(N2C(=O)C3C4C=CC(C4)C3C2=O)c1 (stereo unspecified) , respond with its inhibition.
13.3% (inactive)

Given CCC(OC(=O)c1cccs1)C(=O)NCc1ccco1 (stereo unspecified) , respond with its inhibition.
16.1% (inactive)

Given Nc1nc(N)nc(-c2ccccc2)n1 , respond with its inhibition.
13.8% (inactive)

Given CCCc1[nH]nc2c1C(c1cn[nH]c1-c1ccc(F)cc1)C(C#N)=C(N)O2 (stereo unspecified) , respond with its inhibition.
18.7% (inactive)

Given Cc1ccc2[nH]c3c(c2c1)CN(C(=O)CN1CCN(c2cccc(C)c2C)CC1)CC3 , respond with its inhibition.
22.6% (inactive)

Given CCC(C(=O)Nc1ncccn1)(C(F)(F)F)C(F)(F)F , respond with its inhibition.
-24.5% (inactive)

Given CCN(C(=O)c1cc2cc3ccc(C)cc3nc2o1)c1ccc(OC)cc1 , respond with its inhibition.
-25.1% (inactive)

Given CCCCCCC(c1c(C)n(C)n(-c2ccccc2)c1=O)c1c(C)n(C)n(-c2ccccc2)c1=O , respond with its inhibition.
7.89% (inactive)

Given O=C(NC(C(=O)c1ccccc1)n1ccc(=O)[nH]c1=O)c1ccccc1 (stereo unspecified) , respond with its inhibition.
6.2% (inactive)

Given CCc1ccc2[nH]c(=O)c(C(c3nnnn3CC3CCCO3)N3CCN4CCCC4C3)cc2c1 (stereo unspecified) , respond with its inhibition.
9.53% (inactive)

Given CS(=O)(=O)N(CC(=O)Nc1cccc(F)c1)Cc1ccccc1 , respond with its inhibition.
5.19% (inactive)

Given CN(C)CCNc1oc(-c2ccccc2F)nc1C#N , respond with its inhibition.
0.672% (inactive)

Given CC(=O)Nc1cccc(NC(=O)CSc2nn3c(=O)c(C)nnc3s2)c1 , respond with its inhibition.
2.45% (inactive)

Given Nc1ccc(S(=O)(=O)c2cccc(N)c2)cc1 , respond with its inhibition.
15.4% (inactive)

Given CC(NC(=O)c1ccc2c(c1)OCO2)C(c1cccs1)N1CCOCC1 (stereo unspecified) , respond with its inhibition.
12.6% (inactive)

Given O=C(Nc1ccc2c(c1)C(=O)N(C1CCCCC1)C2=O)C1CCCO1 (stereo unspecified) , respond with its inhibition.
-7.34% (inactive)

Given COc1ccc(CCNC(=O)CSc2nnc(CNc3ccc(Cl)cc3)o2)cc1OC , respond with its inhibition.
11.9% (inactive)

Given CCOC(=O)C1CCN(CC(=O)Nc2c(C(=O)OC)[nH]c3ccc(Cl)cc23)CC1 , respond with its inhibition.
8.17% (inactive)
